assay: Tmax in fasted Beagle dog at 30 mg/kg, po by LC-MS/MS analysis; type: ADME, organism-based, Canis lupus familiaris; conditions: in vivo
Value Kind: Tmax (h)
Dear colleague, please return just the value in h, with no unit written.

Q: Requested field: Tmax. Item: CC(C)c1cccc(C(C)C)c1NC(=O)CCCCCCCCSc1nc2ccccc2o1
Result: 1

* * *

Would you mind telling me the reported Tmax of each entry?
experiment: Tmax in non-fasted Sprague-Dawley rat at 30 mg/kg, po by LC-MS/MS analysis; type: ADME, organism-based; conditions: in vivo
State the answer as a number, implicitly in h.

Q: Can you share its Tmax? I mean this compound: CC(C)c1cccc(C(C)C)c1NC(=O)CCCCCCCCSc1nc2ccccc2o1
Result: 3.2

Q: Continue with CC(C)c1cc(C(C)C)c(CC(=O)NS(=O)(=O)Oc2c(C(C)C)cccc2C(C)C)c(C(C)C)c1
Result: 3.3
